Recorded values, source the FLAb antibody collection.

We begin with a simple list: items and their reported patients with anti-drug antibodies.
Test: patients with anti-drug antibodies; higher = more immunogenic

protein	patients with anti-drug antibodies / %
unnamed (protein) chain 1: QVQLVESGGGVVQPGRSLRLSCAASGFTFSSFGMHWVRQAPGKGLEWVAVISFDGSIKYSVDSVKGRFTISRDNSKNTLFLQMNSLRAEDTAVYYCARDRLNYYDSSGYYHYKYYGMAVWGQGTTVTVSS chain 2: QSVLTQPPSVSAAPGQKVTISCSGSSSNIGNNYVSWYQQLPGTAPKLLIYDNNKRPSGIPDRFSGSKSGTSTTLGITGLQTGDEADYYCGTWDSRLSAVVFGGGTKLTVL	2.4
unnamed (protein) chain 1: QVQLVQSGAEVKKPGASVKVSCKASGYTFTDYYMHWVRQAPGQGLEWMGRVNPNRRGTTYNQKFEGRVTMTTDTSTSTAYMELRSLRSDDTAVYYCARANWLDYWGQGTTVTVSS chain 2: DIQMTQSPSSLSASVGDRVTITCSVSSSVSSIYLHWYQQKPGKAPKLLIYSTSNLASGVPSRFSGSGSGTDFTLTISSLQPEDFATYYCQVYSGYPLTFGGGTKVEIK	0
unnamed (protein) chain 1: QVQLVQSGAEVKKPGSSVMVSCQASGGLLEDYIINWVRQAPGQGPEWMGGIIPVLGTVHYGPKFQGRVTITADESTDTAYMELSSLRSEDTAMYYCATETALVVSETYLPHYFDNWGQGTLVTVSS chain 2: DIQMTQSPSSLSAAVGDRVTITCQASQDIVNYLNWYQQKPGKAPKLLIYVASNLETGVPSRFSGSGSGTDFSLTISSLQPEDVATYYCQQYDNLPLTFGGGTKVEIK	28
unnamed (protein) chain 1: QAYLQQSGAELVRPGASVKMSCKASGYTFTSYNMHWVKQTPRQGLEWIGAIYPGNGDTSYNQKFKGKATLTVDKSSSTAYMQLSSLTSEDSAVYFCARVVYYSNSYWYFDVWGTGTTVTVSA chain 2: QIVLSQSPAILSASPGEKVTMTCRASSSVSYMHWYQQKPGSSPKPWIYAPSNLASGVPARFSGSGSGTSYSLTISRVEAEDAATYYCQQWSFNPPTFGAGTKLELK	1.9
unnamed (protein) chain 1: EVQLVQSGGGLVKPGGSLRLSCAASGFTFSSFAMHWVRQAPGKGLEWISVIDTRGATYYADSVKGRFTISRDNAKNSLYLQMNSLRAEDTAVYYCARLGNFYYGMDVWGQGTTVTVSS chain 2: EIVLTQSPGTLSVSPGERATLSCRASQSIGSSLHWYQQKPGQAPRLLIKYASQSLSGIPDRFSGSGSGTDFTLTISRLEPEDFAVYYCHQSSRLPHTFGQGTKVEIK	0
